- ASSAY REMARKS: Indicative acute toxicity, mouse (intraperitoneally)
- CONDITION CONTEXT: in vivo, ip, read-out: Indicative acute toxicity, DL50
Counter-ions that a name gives are not always drawn.
LD50 less than 300 mg/kg is true (1); LD50 greater than or equal to 300 mg/kg is false (0).

[ask] In the record for CCN(CC)CCOCCOC(=O)C1Oc2ccccc2OC1c1ccccc1 (centres unmarked) , is LD50 less than 300 mg/kg?
[reply] true (1)

[ask] Try the compound CCN(CC)CCNC(=O)C1Oc2ccccc2OC1c1ccccc1 (centres unmarked)
[reply] true (1)

[ask] Then this compound: O=C(OCCOCCN1CCOCC1)C1Oc2ccccc2OC1c1ccccc1 (centres unmarked) [LR 348, hydrochloride]
[reply] true (1)

[ask] Then this compound: CC(C)NC(=O)C1Oc2ccccc2OC1c1ccccc1 (centres unmarked)
[reply] false (0)

[ask] // query: O=C(C1Oc2ccccc2OC1c1ccccc1)N1CCOCC1 (centres unmarked)
[reply] false (0)

[ask] Now give it for O=C(C1Oc2ccccc2OC1c1ccccc1)N1CCN(c2ccccc2)CC1 (centres unmarked) too.
[reply] false (0)

[ask] Queued: O=C(NO)C1Oc2ccccc2OC1c1ccccc1 (centres unmarked)
[reply] true (1)
